Hey, just so you know, these numbers are from PubChem BioAssay.

Reported values of GFP response vs DMSO for individual entries
Assay: modulators of MEP2-GFP levels in yeast, confirmation, S. cerevisiae, flow cytometry GFP, cherry picks (AID 2272);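 also: ratio of well signal to plate DMSO mean so 100% equals DMSO level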
Settings: S. cerevisiae MEP2-GFP strain, 3 h, at 10 µM, stronger effect = higher value
measured endpoint: GFP response vs DMSO (%)

| compound | measured endpoint | observed value |
| --- | --- | --- |
| O=C(Oc1oc(-c2ccco2)nc1C=Nc1ccc(Cl)cc1)c1ccco1 | GFP response vs DMSO | 112 |
| CNC(=O)c1c(O)c2cccc3c2n(c1=O)CC3 | GFP response vs DMSO | 97.5 |
| CC1=CCC(C(=O)O)C(C(=O)Nc2ccc(-c3nc4ccc(C)cc4s3)cc2)C1 (stereo not drawn) | GFP response vs DMSO | 98.8 |
| CCN(Cc1ccccc1)S(=O)(=O)c1ccc(C(=O)Nc2nnc(-c3ccccc3OC)o2)cc1 | GFP response vs DMSO | 102 |
| CC(Oc1ccc(Br)cc1)C(=O)Nc1nc(-c2ccccn2)cs1 (stereo not drawn) | GFP response vs DMSO | 117 |
| Cc1ccccc1NC(=O)c1ccccc1O | GFP response vs DMSO | 101 |
| Cc1cc(NCCN2CCOCC2)n2ncc(-c3ccccc3)c2n1 | GFP response vs DMSO | 103 |
| Cc1ccc(NCN2C(=O)C3C4C=CC(C4)C3C2=O)cc1 (stereo not drawn) | GFP response vs DMSO | 97.5 |
| O=C1C=CC(=O)N1c1cccc(-c2ccccc2)c1 | GFP response vs DMSO | 109 |
| Cc1ccc(N2C(=O)C3C4C=CC(CNC(=S)N5CCN(c6cccc(C)c6)C(C)C5)(O4)C3C2=O)cc1 (stereo not drawn) | GFP response vs DMSO | 103 |
| COc1ccc(/C=C/C(=O)c2c(O)cc(C)oc2=O)c(OC)c1 | GFP response vs DMSO | 103 |
| O=C(OCc1ccco1)c1ccc(S(=O)(=O)N2CCCCC2)cc1 | GFP response vs DMSO | 99 |
| CCc1ccc(C(=O)/C=C/c2ccc([N+](=O)[O-])o2)cc1 | GFP response vs DMSO | 180 |
| O=[N+]([O-])c1cc(/C=N/O)ccc1Oc1ccccc1Cl | GFP response vs DMSO | 146 |
| O=C1C(CSCc2ccccc2)NC(=S)N1c1ccccc1 (stereo not drawn) | GFP response vs DMSO | 98.8 |
| COc1cccc(/C=N/Nc2nc(-c3cccnc3)nc3ccccc23)c1 | GFP response vs DMSO | 106 |
| O=C1c2ccsc2SCCN1Cc1ccc(Cl)cc1 | GFP response vs DMSO | 91.3 |
| Clc1ccc(C2=NNC(=NCc3ccccc3)SC2)cc1 | GFP response vs DMSO | 98.3 |
| O=C(CCCCCN1C(=O)c2cccc3cccc(c23)C1=O)N1CCOCC1 | GFP response vs DMSO | 99 |
| COC(=O)CNc1c(-c2ccccn2)nc2ccc(Br)cn12 | GFP response vs DMSO | 102 |
| CCOC(=O)c1ccc(NC(=O)CCc2nc(-c3cccc(C)c3)no2)cc1 | GFP response vs DMSO | 106 |
| CCOC(=O)Cc1csc(NC(=O)c2sc3nc4ccc(C)cc4cc3c2N)n1 | GFP response vs DMSO | 102 |
| Cc1ccc(CS(=O)(=O)c2ncc(Cl)c(C(=O)Nc3nnc(C(C)C)s3)n2)cc1 | GFP response vs DMSO | 103 |

----------
Assay: inhibitors of CD8+ T cell-vesicle binding, pilot screen, LFA-1/ICAM-1 modulator project, MLPCN validation set, flow cytometry (AID 2523)
Conditions: 2C mouse CD8+ T cells, at 7 µM, stronger effect = lower value; measured here: CD8+/vesicle+ event percentage
measured endpoint: double positive events (%)

| compound | measured endpoint | observed value |
| --- | --- | --- |
| O=C(Nc1c(C(=O)O)[nH]c2ccccc12)NC1CCCCC1 | double positive events | 60.3 |
| O=C(c1cc2cc(Br)ccc2o1)N1CCCCC1 | double positive events | 63.8 |
| CCN(CC)Cc1c[nH]c2c(C(=O)OC)cccc12 | double positive events | 60.2 |
| COc1c2occc2c(OC)c2c(=O)cc(C)oc12 | double positive events | 48.6 |
| COc1ccc(C(=O)Nc2ccc(OC)c([N+](=O)[O-])c2)cc1Br | double positive events | 59 |
| CC[n+]1ccc2cc(OC)c(OC)cc2c1Cc1ccc(OC)c(OC)c1 | double positive events | 64 |
| COc1ccc(C2C3C(C)=NN=C3CC(C)(O)C2C(C)=O)cc1 (configuration not stated) | double positive events | 60.7 |
| O=c1[nH]c(Cc2ccccc2)nc2c1oc1ccccc12 | double positive events | 58.4 |
| O=C(NC(CO)Cc1ccc([N+](=O)[O-])cc1)C(Cl)Cl (configuration not stated) | double positive events | 57.3 |
| Nc1nc2c(ncn2COCCO)c(=O)[nH]1 | double positive events | 63.1 |
| COCCCC/C(=N\OCCN)c1ccc(C(F)(F)F)cc1 | double positive events | 60.3 |
| COc1ccc(CN(CCC(c2ccc(F)cc2)C2CCOC(C)(C)C2)C(=O)c2ccco2)cc1 (configuration not stated) | double positive events | 59.4 |
| COC(=O)c1ccc(COc2ccc3c(C)c(C)c(=O)oc3c2C)o1 | double positive events | 57.7 |
| CN=C1c2cc3cc(OC)ccc3n2CCN1C | double positive events | 62 |
| C=C(C)COc1ccc(-c2nc(N)ncc2-c2ccc(OC)cc2)c(O)c1 | double positive events | 55.6 |
| COc1ccccc1C1C(C#N)=C(N)Oc2c1oc(CO)cc2=O (configuration not stated) | double positive events | 52 |
| COc1cccc(OC)c1C(=O)NCCSC1CCCCC1 | double positive events | 61.3 |
| Cc1cnc(C(=O)N2CCCC(C(=O)c3ccc(Cl)cc3C)C2)cn1 (configuration not stated) | double positive events | 50 |
| COc1ccc(CCNC(=O)CC(c2ccccc2)c2cccc(C)c2O)cc1OC (configuration not stated) | double positive events | 62.6 |
| COc1cccc(N2C(=O)[C@H]3C(C(=O)c4cnccn4)=NN[C@H]3C2=O)c1 | double positive events | 63.5 |
| CC(O)Cn1cnc2c1c(=O)n(C)c(=O)n2C (configuration not stated) | double positive events | 50 |
| COCCc1ccc(OCC(O)CNC(C)C)cc1 (configuration not stated) | double positive events | 68.1 |
| C=C(CC)C(=O)c1ccc(OCC(=O)O)c(Cl)c1Cl | double positive events | 52.1 |
| Cc1ccc(C(=O)N2CC3(C(C)C)CN(C(=O)c4ccc(C)cc4)CC(C(C)C)(C2)C3=O)cc1 | double positive events | 59.7 |
| CCCCC(=O)O[C@]1(C(=O)CO)CC[C@H]2[C@@H]3CCC4=CC(=O)CC[C@]4(C)[C@H]3[C@@H](O)C[C@@]21C | double positive events | 62.4 |
| O=C1CCCCCN1Cc1ccccc1 | double positive events | 62.4 |
| O=C(c1ccc([N+](=O)[O-])cc1)N1CCSC1c1ccccc1Cl (configuration not stated) | double positive events | 77.4 |
| O=C(O)CCCCCCCC(=O)O | double positive events | 58.5 |
| O=C1OCCN1/N=C/c1ccc([N+](=O)[O-])o1 | double positive events | 48.6 |
| Oc1ccc(/C=C/c2cc(O)cc(O)c2)cc1 | double positive events | 52.4 |
| CCC(=O)Oc1ccc(/C(CC)=C(\CC)c2ccc(OC(=O)CC)cc2)cc1 | double positive events | 67.2 |
| Nc1nc2ccc(OC(F)(F)F)cc2s1 | double positive events | 57.4 |
| CCOc1ccccc1OCCOc1ccc(F)cc1 | double positive events | 63.4 |
| Cc1c(CCOC(=O)CC23CC4CC(CC(C)(C4)C2)C3)sc[n+]1Cc1ccc([N+](=O)[O-])cc1 | double positive events | 59 |
| C[C@H]1C[C@H]2[C@@H]3CCC4=CC(=O)C=C[C@]4(C)[C@@]3(Cl)[C@@H](O)C[C@]2(C)[C@@]1(O)C(=O)CO | double positive events | 53.7 |
| CN1CCC(=C2c3ccccc3CC(=O)c3sccc32)CC1 | double positive events | 62.4 |
| Cn1c(=O)[nH]c(=O)c2c1nc(Br)n2CCCO | double positive events | 64.5 |
| COc1cc2c(cc1O)CCN(C(=O)c1ccco1)C2C (configuration not stated) | double positive events | 59.4 |
| O=c1oc2c(CN3CCN(CCO)CC3)c(O)ccc2cc1-c1ccccn1 | double positive events | 62.7 |
| C[C@@H]1C[C@H]2[C@@H]3CCC4=CC(=O)C=C[C@]4(C)[C@@]3(F)[C@@H](O)C[C@]2(C)[C@H]1C(=O)CO | double positive events | 54.1 |
| Nc1c2c(nc3ccccc13)CCCC2 | double positive events | 68.9 |
| C[N+](C)(C)CCOP(=O)(O)OP(=O)([O-])OC[C@H]1O[C@@H](n2ccc(N)nc2=O)[C@H](O)[C@@H]1O | double positive events | 68.8 |
| CN1CCCC(OC(=O)c2ccc3c(c2)OCCO3)C1 (configuration not stated) | double positive events | 58.8 |
| c1cc2c(cc1C1CCCCC1)c1c3n2CCN=C3CCC1 | double positive events | 57.1 |
| CC(C)NCC(O)COc1ccc(CC(N)=O)cc1 (configuration not stated) | double positive events | 61.8 |
| NCCOc1ccccc1OCCN | double positive events | 59.5 |
| CCc1cc(=O)oc2cc(C)c(CN3CCCC(C)C3)c(O)c12 (configuration not stated) | double positive events | 52.2 |
